# method-summary: gradient 5% acetonitrile 3 min, to 50% in 2 min, to 85% in 15 min, held 3 min, 100 µL/min
# run-conditions: column: Zorbax Extend-C18 2.1 x 50 mm; eluents: water / acetonitrile, 0.1% formic acid
recorded-metric: RP-LC retention time (s)

molecule=Cc1ccc(C)c(-c2nnc(NC(=O)c3ccccc3[N+](=O)[O-])o2)c1 recorded_metric="RP-LC retention time" unit_string=s assay_value=798
molecule=COc1ccccc1Cc1nc(-c2cn(-c3ccc(F)cc3)nn2)no1 recorded_metric="RP-LC retention time" unit_string=s assay_value=1020
molecule=O=C(Cn1cccc1-c1nc(-c2ccc3c(c2)OCO3)no1)NCc1ccco1 recorded_metric="RP-LC retention time" unit_string=s assay_value=906
molecule=Cc1nc2cc(-c3noc(CCc4ccccc4)n3)ccc2o1 recorded_metric="RP-LC retention time" unit_string=s assay_value=1050
molecule="COc1ccc(N2C(=O)C3N=NN(Cc4nc(-c5ccc(Br)cc5)no4)C3C2=O)cc1 (stereo not given)" recorded_metric="RP-LC retention time" unit_string=s assay_value=1020

A. Cc1ccc(C)c(-c2coc(-c3ccc(NC(=O)Cc4cccs4)cc3)n2)c1
B. Cc1cc(F)ccc1NC(=O)Cn1nc2cc(-c3ccccn3)nc(C)n2c1=O
From the recorded data, which exceeds the other in RP-LC retention time: A or B ? I would appreciate it if you answered with the label of your choice.
A
